Hello, the source for this data is the supplement of paper PMC5998384, in case you need it.

Catalogue of sequences with associated melting temperature
- Test system: HeLa Kyoto
- protocol text: melting temperature (median over replicates), in situ; higher = more thermally stable
- assay context: cell cycle stage: G1/S
The reply should contain only the number, in °C.

[[record]]
residues = "MEDPQSKEPAGEAVALALLESPRPEGGEEPPRPSPEETQQCKFDGQETKGSKFITSSASDFSDPVYKEIAITNGCINRMSKEELRAKLSEFKLETRGVKDVLKKRLKNYYKKQKLMLKESNFADSYYDYICIIDFEATCEEGNPPEFVHEIIEFPVVLLNTHTLEIEDTFQQYVRPEINTQLSDFCISLTGITQDQVDRADTFPQVLKKVIDWMKLKELGTKYKYSLLTDGSWDMSKFLNIQCQLSRLKYPPFAKKWINIRKSYGNFYKVPRSQTKLTIMLEKLGMDYDGRPHCGLDDSKNIARIAVRMLQDGCELRINEKMHAGQLMSVSSSLPIEGTPPPQMPHFRK [ERI1]"
measurement_name = "melting temperature"
observed = 51

[[record]]
residues = "MPKGGRKGGHKGRARQYTSPEEIDAQLQAEKQKAREEEEQKEGGDGAAGDPKKEKKSLDSDESEDEEDDYQQKRKGVEGLIDIENPNRVAQTTKKVTQLDLDGPKELSRREREEIEKQKAKERYMKMHLAGKTEQAKADLARLAIIRKQREEAARKKEEERKAKDDATLSGKRMQSLSLNK [PDAP1]"
measurement_name = "melting temperature"
observed = 57.9

[[record]]
residues = "MKRQGASSERKRARIPSGKAGAANGFLMEVCVDSVESAVNAERGGADRIELCSGLSEGGTTPSMGVLQVVKQSVQIPVFVMIRPRGGDFLYSDREIEVMKADIRLAKLYGADGLVFGALTEDGHIDKELCMSLMAICRPLPVTFHRAFDMVHDPMAALETLLTLGFERVLTSGCDSSALEGLPLIKRLIEQAKGRIVVMPGGGITDRNLQRILEGSGATEFHCSARSTRDSGMKFRNSSVAMGASLSCSEYSLKVTDVTKVRTLNAIAKNILV [CUTC]"
measurement_name = "melting temperature"
observed = 54.4


May I ask what melting temperature has been recorded for MSSRIARALALVVTLLHLTRLALSTCPAACHCPLEAPKCAPGVGLVRDGCGCCKVCAKQLNEDCSKTQPCDHTKGLECNFGASSTALKGICRAQSEGRPCEYNSRIYQNGESFQPNCKHQCTCIDGAVGCIPLCPQELSLPNLGCPNPRLVKVTGQCCEEWVCDEDSIKDPMEDQDGLLGKELGFDASEVELTRNNELIAVGKGSSLKRLPVFGMEPRILYNPLQGQKCIVQTTSWSQCSKTCGTGISTRVTNDNPECRLVKETRICEVRPCGQPVYSSLKKGKKCSKTKKSPEPVRFTYAGCLSVKKYRPKYCGSCVDGRCCTPQLTRTVKMRFRCEDGETFSKNVMMIQSCKCNYNCPHANEAAFPFYRLFNDIHKFRD [CYR61] ?
52.8

Again, but for MAAAAGDADDEPRSGHSSSEGECAVAPEPLTDAEGLFSFADFGSALGGGGAGLSGRASGGAQSPLRYLHVLWQQDAEPRDELRCKIPAGRLRRAARPHRRLGPTGKEVHALKRLRDSANANDVETVQQLLEDGADPCAADDKGRTALHFASCNGNDQIVQLLLDHGADPNQRDGLGNTPLHLAACTNHVPVITTLLRGGARVDALDRAGRTPLHLAKSKLNILQEGHAQCLEAVRLEVKQIIHMLREYLERLGQHEQRERLDDLCTRLQMTSTKEQVDEVTDLLASFTSLSLQMQSMEKR [ANKRD54]
51

Again, but for MASSDIQVKELEKRASGQAFELILSPRSKESVPEFPLSPPKKKDLSLEEIQKKLEAAEERRKSHEAEVLKQLAEKREHEKEVLQKAIEENNNFSKMAEEKLTHKMEANKENREAQMAAKLERLREKDKHIEEVRKNKESKDPADETEAD [STMN1]
56.7

====

- Tested on: HeLa Kyoto
- protocol text: solubility change mitosis vs G1/S (difference of NP-40 vs SDS log2 ratios) (log2 ratio difference); higher = more soluble in mitosis
Catalogue of sequences with associated solubility change mitosis (log2)
Lab note: record the figure alone, no unit after it.

Reference set (3 entries):
[[record]]
residues = "MALLSTVRGATWGRLVTRHFSHAARHGERPGGEELSRLLLDDLVPTSRLELLFGMTPCLLALQAARRSVARLLLQAGKAGLQGKRAELLRMAEARDIPVLRPRRQKLDTMCRYQVHQGVCMEVSPLRPRPWREAGEASPGDDPQQLWLVLDGIQDPRNFGAVLRSAHFLGVDKVITSRRNSCPLTPVVSKSSAGAMEVMDVFSTDDLTGFLQTKAQQGWLVAGTVGCPSTEDPQSSEIPIMSCLEFLWERPTLLVLGNEGSGLSQEVQASCQLLLTILPRRQLPPGLESLNVSVAAGILLHSICSQRKGFPTEGERRQLLQDPQEPSARSEGLSMAQHPGLSSGPEKERQNEG [MRM1]"
target_or_test_system = "HeLa Kyoto"
observed = 0.0939

[[record]]
residues = "MSFVAYEELIKEGDTAILSLGHGAMVAVRVQRGAQTQTRHGVLRHSVDLIGRPFGSKVTCGRGGWVYVLHPTPELWTLNLPHRTQILYSTDIALITMMLELRPGSVVCESGTGSGSVSHAIIRTIAPTGHLHTVEFHQQRAEKAREEFQEHRVGRWVTVRTQDVCRSGFGVSHVADAVFLDIPSPWEAVGHAWDALKVEGGRFCSFSPCIEQVQRTCQALAARGFSELSTLEVLPQVYNVRTVSLPPPDLGTGTDGPAGSDTSPFRSGTPMKEAVGHTGYLTFATKTPG [TRMT61A]"
target_or_test_system = "HeLa Kyoto"
observed = -0.00636

[[record]]
residues = "MTKLAQWLWGLAILGSTWVALTTGALGLELPLSCQEVLWPLPAYLLVSAGCYALGTVGYRVATFHDCEDAARELQSQIQEARADLARRGLRF [DPM3]"
target_or_test_system = "HeLa Kyoto"
observed = -0.214


May I ask what solubility change mitosis (log2) has been recorded for MDALKSAGRALIRSPSLAKQSWGGGGRHRKLPENWTDTRETLLEGMLFSLKYLGMTLVEQPKGEELSAAAIKRIVATAKASGKKLQKVTLKVSPRGIILTDNLTNQLIENVSIYRISYCTADKMHDKVFAYIAQSQHNQSLECHAFLCTKRKMAQAVTLTVAQAFKVAFEFWQVSKEEKEKRDKASQEGGDVLGARQDCTPSLKSLVATGNLLDLEETAKAPLSTVSANTTNMDEVPRPQALSGSSVVWELDDGLDEAFSRLAQSRTNPQVLDTGLTAQDMHYAQCLSPVDWDKPDSSGTEQDDLFSF [LDLRAP1] ?
0.0321

Again, but for MASGQGPGPPRQECGEPALPSASEEQVAQDTEEVFRSYVFYRHQQEQEAEGVAAPADPEMVTLPLQPSSTMGQVGRQLAIIGDDINRRYDSEFQTMLQHLQPTAENAYEYFTKIATSLFESGINWGRVVALLGFGYRLALHVYQHGLTGFLGQVTRFVVDFMLHHCIARWIAQRGGWVAALNLGNGPILNVLVVLGVVLLGQFVVRRFFKS [BAK1]
-0.0672

Again, but for MALVHKLLRGTYFLRKFSKPTSALYPFLGIRFAEYSSSLQKPVASPGKASSQRKTEGDLQGDHQKEVALDITSSEEKPDVSFDKAIRDEAIYHFRLLKDEIVDHWRGPEGHPLHEVLLEQAKVVWQFRGKEDLDKWTVTSDKTIGGRSEVFLKMGKNNQSALLYGTLSSEAPQDGESTRSGYCAMISRIPRGAFERKMSYDWSQFNTLYLRVRGDGRPWMVNIKEDTDFFQRTNQMYSYFMFTRGGPYWQEVKIPFSKFFFSNRGRIRDVQHELPLDKISSIGFTLADKVDGPFFLEIDFIGVFTDPAHTEEFAYENSPELNPRLFK [NDUFAF1]
-0.0281

Again, but for MAASRPLSRFWEWGKNIVCVGRNYADHVREMRSAVLSEPVLFLKPSTAYAPEGSPILMPAYTRNLHHELELGVVMGKRCRAVPEAAAMDYVGGYALCLDMTARDVQDECKKKGLPWTLAKSFTASCPVSAFVPKEKIPDPHKLKLWLKVNGELRQEGETSSMIFSIPYIISYVSKIITLEEGDIILTGTPKGVGPVKENDEIEAGIHGLVSMTFKVEKPEY [FAHD1]
-0.257

Again, but for MRPLTEEETRVMFEKIAKYIGENLQLLVDRPDGTYCFRLHNDRVYYVSEKIMKLAANISGDKLVSLGTCFGKFTKTHKFRLHVTALDYLAPYAKYKVWIKPGAEQSFLYGNHVLKSGLGRITENTSQYQGVVVYSMADIPLGFGVAAKSTQDCRKVDPMAIVVFHQADIGEYVRHEETLT [NIP7]
0.622

Again, but for MFSRAGVAGLSAWTLQPQWIQVRNMATLKDITRRLKSIKNIQKITKSMKMVAAAKYARAERELKPARIYGLGSLALYEKADIKGPEDKKKHLLIGVSSDRGLCGAIHSSIAKQMKSEVATLTAAGKEVMLVGIGDKIRGILYRTHSDQFLVAFKEVGRKPPTFGDASVIALELLNSGYEFDEGSIIFNKFRSVISYKTEEKPIFSLNTVASADSMSIYDDIDADVLQNYQEYNLANIIYYSLKESTTSEQSARMTAMDNASKNASEMIDKLTLTFNRTRQAVITKELIEIISGAAALD [ATP5C1]
-0.0222

Again, but for MAAAALRRFWSRRRAEAGDAVVAKPGVWARLGSWARALLRDYAEACRDASAEARARPGRAAVYVGLLGGAAACFTLAPSEGAFEEALLEASGTLLLLAPATRNRESEAFVQRLLWLRGRGRLRYVNLGLCSLVYEAPFDAQASLYQARCRYLQPRWTDFPGRVLDVGFVGRWWVLGAWMRDCDINDDEFLHLPAHLRVVGPQQLHSETNERLFDEKYKPVVLTDDQVDQALWEEQVLQKEKKDRLALSQAHSLVQAEAPR [C19ORF52]
-0.13

Again, but for MEEECRVLSIQSHVIRGYVGNRAATFPLQVLGFEIDAVNSVQFSNHTGYAHWKGQVLNSDELQELYEGLRLNNMNKYDYVLTGYTRDKSFLAMVVDIVQELKQQNPRLVYVCDPVLGDKWDGEGSMYVPEDLLPVYKEKVVPLADIITPNQFEAELLSGRKIHSQEEALRVMDMLHSMGPDTVVITSSDLPSPQGSNYLIVLGSQRRRNPAGSVVMERIRMDIRKVDAVFVGTGDLFAAMLLAWTHKHPNNLKVACEKTVSTLHHVLQRTIQCAKAQAGEGVRPSPMQLELRMVQSKRDIEDPEIVVQATVL [PDXK]
-0.0576
